Value source: patent US20030130340A1

# targetEntity: steroid 17α-hydroxylase and/or steroid C17-20 lyase (Rattus norvegicus)
# Construct: the testis of rats (SD, male) was homogenized and centrifuged to obtain microsome; from tissue; host or cells: rat (SD, male) testis microsomes
# protocolDetails: Measurement of steroid 17α-hydroxylase and/or steroid C17-20 lyase inhibitory activity (rat testis microsome, HPLC)
# Format: biochemical
# measurementConditions: Enzyme source: rat testis microsome; test compound 300 nM; substrate 25 μM 17α-hydroxyprogesterone; NADPH 500 μM; 20 minutes at 37° C.
Counter-ions that a name gives are not always drawn.
testReadout: inhibition at 0.3 µM (%)

Study these solved cases before continuing.
>>> numericresult("CCCCCOc1ccc2c(-c3cccnc3)csc2c1 [Example 36, hydrochloride]")
60
>>> numericresult("COc1cccc(-c2ccc3c(-c4cccnc4)csc3c2)c1 [Example 16, hydrochloride]")
73
>>> numericresult("Nc1cccc(-c2ccc3c(-c4cccnc4)csc3c2)c1 [Example 23]")
100
>>> numericresult("COc1ccc2c(-c3ccccn3)csc2c1.Cl [Example 3, hydrochloride]")
9
>>> numericresult("CC(C)Cc1ccc2c(-c3cccnc3)csc2c1 [Example 46, hydrochloride]")
100
>>> numericresult("CC(C)Oc1ccc2c(-c3cccnc3)csc2c1 [Example 12, hydrochloride]")
100
>>> numericresult("c1cncc(-c2csc3cc(C4CCCCC4)ccc23)c1 [Example 50, hydrochloride]")
80

P = c1ccc(-c2ccc3c(-c4cccnc4)csc3c2)cc1 [Example 15]
Q = Cc1ccc2c(-c3cccnc3)csc2c1 [Example 27, hydrochloride]
### Prompt Input pair: P , Q . Output: entry with lower inhibition at 0.3 µM. Answer by quoting the chosen item's label.
### Response Q

###

# targetEntity: steroid 17α-hydroxylase and/or steroid C17-20 lyase (Rattus norvegicus)
# Construct: the testis of rats (SD, male) was homogenized and centrifuged to obtain microsome; from tissue; host or cells: rat (SD, male) testis microsomes
# Sequence (P11715 1-507): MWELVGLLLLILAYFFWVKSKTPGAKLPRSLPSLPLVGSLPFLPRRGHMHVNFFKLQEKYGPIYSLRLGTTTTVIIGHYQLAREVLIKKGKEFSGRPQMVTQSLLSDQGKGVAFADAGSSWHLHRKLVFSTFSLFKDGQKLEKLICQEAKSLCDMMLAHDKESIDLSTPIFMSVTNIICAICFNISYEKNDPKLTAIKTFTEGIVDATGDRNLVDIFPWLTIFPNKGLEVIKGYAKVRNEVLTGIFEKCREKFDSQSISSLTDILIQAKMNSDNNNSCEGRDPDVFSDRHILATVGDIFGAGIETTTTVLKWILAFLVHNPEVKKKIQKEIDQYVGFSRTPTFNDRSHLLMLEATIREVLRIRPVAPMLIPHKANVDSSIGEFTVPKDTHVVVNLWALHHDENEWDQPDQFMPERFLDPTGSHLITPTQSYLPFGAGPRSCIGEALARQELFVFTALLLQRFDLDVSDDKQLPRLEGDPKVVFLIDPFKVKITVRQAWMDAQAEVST
# protocolDetails: Measurement of steroid 17α-hydroxylase and/or steroid C17-20 lyase inhibitory activity (rat testis microsome, HPLC)
# Type: biochemical
# measurementConditions: Enzyme source: rat testis microsome; test compound 300 nM; substrate 25 μM 17α-hydroxyprogesterone; NADPH 500 μM; 20 minutes at 37° C.
Where a name gives a salt, the structure may show the parent alone.
testReadout: inhibition at 0.3 µM (%)

Solved entries:
>>> numericresult("CCCCCCOc1ccc2c(-c3cccnc3)csc2c1 [Example 35, hydrochloride]")
61
>>> numericresult("CC(=O)Nc1ccc2c(-c3cccnc3)csc2c1 [Example 56]")
63
>>> numericresult("CC(C)COc1ccc2c(-c3cccnc3)csc2c1 [Example 40, hydrochloride]")
79
>>> numericresult("c1cncc(-c2csc3cc(N4CCOCC4)ccc23)c1 [Example 55, dihydrochloride]")
94
>>> numericresult("CCCCOc1ccc2c(-c3cccnc3)csc2c1 [Example 37, hydrochloride]")
80

P = CC(=O)c1cccc(-c2ccc3c(-c4cccnc4)csc3c2)c1 [Example 39]
Q = CCCc1ccc2c(-c3cccnc3)csc2c1 [Example 52, hydrochloride]
R = Oc1ccc2c(-c3ccncc3)csc2c1 [Example 6, 3-(4-pyridyl)benzo[b]thiophen-6-ol]
S = Brc1ccc2c(-c3cccnc3)csc2c1 [Example 28, hydrochloride]
### Prompt // ascending sort on recorded inhibition at 0.3 µM Answer with the labels in sequence, matching the requested order.
### Response R, S, P, Q
(R: 3%, S: 42%, P: 64%, Q: 93%)

###

# targetEntity: steroid 17α-hydroxylase and/or steroid C17-20 lyase (Rattus norvegicus)
# Construct: the testis of rats (SD, male) was homogenized and centrifuged to obtain microsome; from tissue; host or cells: rat (SD, male) testis microsomes
# Sequence (P11715 1-507): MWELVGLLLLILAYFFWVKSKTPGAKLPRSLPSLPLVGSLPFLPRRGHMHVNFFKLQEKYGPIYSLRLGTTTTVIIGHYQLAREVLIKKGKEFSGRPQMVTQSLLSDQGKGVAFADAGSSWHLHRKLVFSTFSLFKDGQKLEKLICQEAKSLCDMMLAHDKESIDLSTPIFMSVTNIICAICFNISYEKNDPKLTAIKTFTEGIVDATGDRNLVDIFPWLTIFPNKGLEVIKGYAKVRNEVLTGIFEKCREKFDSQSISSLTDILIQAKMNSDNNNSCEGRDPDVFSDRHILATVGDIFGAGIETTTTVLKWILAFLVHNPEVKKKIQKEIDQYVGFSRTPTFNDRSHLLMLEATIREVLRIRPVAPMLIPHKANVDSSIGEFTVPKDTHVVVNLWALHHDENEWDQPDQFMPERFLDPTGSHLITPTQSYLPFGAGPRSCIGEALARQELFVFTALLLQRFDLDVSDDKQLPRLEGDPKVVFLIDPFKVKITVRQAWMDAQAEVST
# protocolDetails: Measurement of steroid 17α-hydroxylase and/or steroid C17-20 lyase inhibitory activity (rat testis microsome, HPLC)
# Type: biochemical
# measurementConditions: Enzyme source: rat testis microsome; test compound 300 nM; substrate 25 μM 17α-hydroxyprogesterone; NADPH 500 μM; 20 minutes at 37° C.
Structures can show the parent of a compound that is named as a salt.
testReadout: inhibition at 0.3 µM (%)

The cases that follow already have their inhibition at 0.3 µM on record.
>>> numericresult("CC(C)Nc1cccc(-c2ccc3c(-c4cccnc4)csc3c2)c1")
67
>>> numericresult("c1cncc(-c2csc3cc(OC4CCCC4)ccc23)c1 [Example 25, hydrochloride]")
76
>>> numericresult("c1cncc(-c2csc3cc(-c4ccoc4)ccc23)c1 [Example 32, hydrochloride]")
100
>>> numericresult("Fc1cccc(-c2ccc3c(-c4cccnc4)csc3c2)c1")
91
>>> numericresult("c1cncc(-c2ccc3c(-c4cccnc4)csc3c2)c1")
100
>>> numericresult("c1cncc(-c2csc3cc(-c4ccsc4)ccc23)c1 [Example 31, hydrochloride]")
100
>>> numericresult("c1ccc(COc2ccc3c(-c4cccnc4)csc3c2)cc1 [Example 11, hydrochloride]")
71
>>> numericresult("c1cncc(-c2csc3cc(-c4ccco4)ccc23)c1 [Example 34, hydrochloride]")
100

a = CC(C)Oc1cccc(-c2ccc3c(-c4cccnc4)csc3c2)c1 [Example 51, hydrochloride]
b = CCCOc1ccc2c(-c3cccnc3)csc2c1 [Example 41, hydrochloride]
c = Brc1cccc2scc(-c3cccnc3)c12 [Example 29, hydrochloride]
d = CSc1ccc(-c2ccc3c(-c4cccnc4)csc3c2)cc1 [Example 47, hydrochloride]
### Prompt Rank order required: inhibition at 0.3 µM, descending. Order the labels as requested and list them.
### Response b, d, a, c

###

# targetEntity: steroid 17α-hydroxylase and/or steroid C17-20 lyase (Rattus norvegicus)
# Construct: the testis of rats (SD, male) was homogenized and centrifuged to obtain microsome; from tissue; host or cells: rat (SD, male) testis microsomes
# protocolDetails: Measurement of steroid 17α-hydroxylase and/or steroid C17-20 lyase inhibitory activity (rat testis microsome, HPLC)
# Format: biochemical
# measurementConditions: Enzyme source: rat testis microsome; test compound 300 nM; substrate 25 μM 17α-hydroxyprogesterone; NADPH 500 μM; 20 minutes at 37° C.
Where a name gives a salt, the structure may show the parent alone.
testReadout: inhibition at 0.3 µM (%)

>>> numericresult("c1cncc(-c2csc3cc(OC4CCC4)ccc23)c1 [Example 30, hydrochloride]")
100
>>> numericresult("c1cncc(-c2csc3cc(-c4cccs4)ccc23)c1 [Example 33, hydrochloride]")
100
>>> numericresult("Fc1ccc(-c2ccc3c(-c4cccnc4)csc3c2)cc1 [Example 13, hydrochloride]")
93

###

# targetEntity: steroid 17α-hydroxylase and/or steroid C17-20 lyase (Rattus norvegicus)
# Construct: the testis of rats (SD, male) was homogenized and centrifuged to obtain microsome; from tissue; host or cells: rat (SD, male) testis microsomes
# Sequence (P11715 1-507): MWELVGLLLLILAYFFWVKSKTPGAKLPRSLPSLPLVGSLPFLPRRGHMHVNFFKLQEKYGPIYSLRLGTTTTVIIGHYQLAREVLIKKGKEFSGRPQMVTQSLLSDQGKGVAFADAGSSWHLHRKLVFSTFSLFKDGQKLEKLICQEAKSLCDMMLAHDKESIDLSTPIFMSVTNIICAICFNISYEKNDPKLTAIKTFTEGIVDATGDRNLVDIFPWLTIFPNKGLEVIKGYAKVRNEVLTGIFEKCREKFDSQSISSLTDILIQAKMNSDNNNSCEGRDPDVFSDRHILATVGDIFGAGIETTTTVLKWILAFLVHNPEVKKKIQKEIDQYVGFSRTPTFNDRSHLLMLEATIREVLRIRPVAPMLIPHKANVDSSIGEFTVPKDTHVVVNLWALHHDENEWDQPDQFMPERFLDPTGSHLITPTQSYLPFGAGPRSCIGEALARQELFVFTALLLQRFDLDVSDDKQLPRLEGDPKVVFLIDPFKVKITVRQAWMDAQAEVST
# protocolDetails: Measurement of steroid 17α-hydroxylase and/or steroid C17-20 lyase inhibitory activity (rat testis microsome, HPLC)
# Format: biochemical
# measurementConditions: Enzyme source: rat testis microsome; test compound 300 nM; substrate 25 μM 17α-hydroxyprogesterone; NADPH 500 μM; 20 minutes at 37° C.
Structures can show the parent of a compound that is named as a salt.
testReadout: inhibition at 0.3 µM (%)

>>> numericresult("c1cncc(-c2csc3cc(-c4ccc5c(c4)OCO5)ccc23)c1 [Example 42, hydrochloride]")
57

I = CC(=O)c1ccc(-c2ccc3c(-c4cccnc4)csc3c2)cc1
II = Oc1cccc(-c2ccc3c(-c4cccnc4)csc3c2)c1
### Prompt Field: entry with larger inhibition at 0.3 µM (options I / II ). Your answer should be the label attached to the chosen record.
### Response II
